# System: 885512-296-R-J2-PDC complex spheroid viability
# assay-remarks: Anticancer human tumor 885512-296-R-J2-PDC patient-derived breast carcinoma cell line growth inhibition
# condition-summary: second compound 0.1 µM; first compound 0.316 µM; hits give low values
Labelling: viability, T/C reported below 90% becomes rule met; at or above becomes rule not met.

Quick check: viability, T/C of Nc1ncn(C2CC(O)C(CO)O2)c(=O)n1 (configuration not stated) + NC1CC1c1ccc(-c2cccc(O)c2)cc1 under 90%?
rule met

----------
# Test system: 885512-296-R-J2-PDC complex spheroid viability
# assay-remarks: Anticancer human tumor 885512-296-R-J2-PDC cell line growth inhibition; active means viability on the fitted dose curve at most 10% of control; inactive means the rest;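 note: spheroids exposed to agents for 7 days before viability read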
# condition-summary: second compound 10 µM; first compound 0.0949 µM
Choose the fitting class; nothing outside YES = active, NO = inactive is accepted.

Worked examples, 3 molecules total:
molecule="COc1cc(C2c3cc4c(cc3C(OC3OC5COC(C)OC5C(O)C3O)C3COC(=O)C23)OCO4)cc(OC)c1O (centres undefined) + NC1CCC(NC2CC2c2ccccc2)CC1" answer_label=NO
molecule="Nc1ncn(C2CC(O)C(CO)S2)c(=O)n1 (centres undefined) + NC1CC1c1ccc(-c2cccc(O)c2)cc1" answer_label=YES
molecule="CCN(c1cc(-c2ccc(CN3CCOCC3)cc2)cc(C(=O)NCc2c(C)cc(C)[nH]c2=O)c1C)C1CCOCC1 + NC1CCC(NC2CC2c2ccccc2)CC1" answer_label=NO

Here's the next entry for you.
Tell me the recorded outcome of this test for NS(=O)(=O)OCC1CC(n2ccc3c(NC4CCc5ccccc54)ncnc32)CC1O (centres undefined) + NC1CC1c1ccc(-c2cccc(O)c2)cc1 .
YES
